Test: Selectivity index, ratio of CC50 for human TZM-bl cells to EC50 for wild type HIV1 NL4-3 infected in human TZM-bl cells
Assay type: toxicity, cell-based
Conditions: read-out: Ratio CC50/EC50
Catalogue of selectivity ratio readings, one per entry.
endpoint: selectivity ratio

compound	endpoint	reported-relation	recorded-result
COc1cc2c(c3oc4ccc(F)cc4c(=O)c13)[C@@H](OC(=O)C13CCC(C)(C(=O)O1)C3(C)C)[C@@H](OC(=O)C13CCC(C)(C(=O)O1)C3(C)C)C(C)(C)O2 (stereo not given in full)	selectivity ratio	=	260
COc1ccc2oc3c4c(cc(OC)c3c(=O)c2c1)OC(C)(C)[C@H](OC(=O)C12CCC(C)(C(=O)O1)C2(C)C)[C@@H]4OC(=O)C12CCC(C)(C(=O)O1)C2(C)C (stereo not given in full)	selectivity ratio	=	88.8
COc1cc(C)c2c(=O)c3c(OC)cc4c(c3oc2c1)[C@@H](OC(=O)C12CCC(C)(C(=O)O1)C2(C)C)[C@@H](OC(=O)C12CCC(C)(C(=O)O1)C2(C)C)C(C)(C)O4 (stereo not given in full)	selectivity ratio	>	192
COc1cc2c(c3oc4c(F)cccc4c(=O)c13)[C@@H](OC(=O)C13CCC(C)(C(=O)O1)C3(C)C)[C@@H](OC(=O)C13CCC(C)(C(=O)O1)C3(C)C)C(C)(C)O2 (stereo not given in full)	selectivity ratio	=	33.9
COc1cc2c(c3oc4c(C)cccc4c(=O)c13)[C@@H](OC(=O)C13CCC(C)(C(=O)O1)C3(C)C)[C@@H](OC(=O)C13CCC(C)(C(=O)O1)C3(C)C)C(C)(C)O2 (stereo not given in full)	selectivity ratio	=	2.84
COc1cccc2oc3c4c(cc(OC)c3c(=O)c12)OC(C)(C)[C@H](OC(=O)C12CCC(C)(C(=O)O1)C2(C)C)[C@@H]4OC(=O)C12CCC(C)(C(=O)O1)C2(C)C (stereo not given in full)	selectivity ratio	=	6.83
COc1cc2c(c3oc4ccc(C)cc4c(=O)c13)[C@@H](OC(=O)C13CCC(C)(C(=O)O1)C3(C)C)[C@@H](OC(=O)C13CCC(C)(C(=O)O1)C3(C)C)C(C)(C)O2 (stereo not given in full)	selectivity ratio	=	175
COc1cc2c(c3oc4cccc(F)c4c(=O)c13)[C@@H](OC(=O)C13CCC(C)(C(=O)O1)C3(C)C)[C@@H](OC(=O)C13CCC(C)(C(=O)O1)C3(C)C)C(C)(C)O2 (stereo not given in full)	selectivity ratio	>	224
COc1cc2c(c3oc4ccc(Br)cc4c(=O)c13)[C@@H](OC(=O)C13CCC(C)(C(=O)O1)C3(C)C)[C@@H](OC(=O)C13CCC(C)(C(=O)O1)C3(C)C)C(C)(C)O2 (stereo not given in full)	selectivity ratio	=	6.83
COc1cc2c(c3oc4ccc(CBr)cc4c(=O)c13)[C@@H](OC(=O)C13CCC(C)(C(=O)O1)C3(C)C)[C@@H](OC(=O)C13CCC(C)(C(=O)O1)C3(C)C)C(C)(C)O2 (stereo not given in full)	selectivity ratio	>	5.55
COc1cc2c(c3oc4cccc(C)c4c(=O)c13)[C@@H](OC(=O)C13CCC(C)(C(=O)O1)C3(C)C)[C@@H](OC(=O)C13CCC(C)(C(=O)O1)C3(C)C)C(C)(C)O2 (stereo not given in full)	selectivity ratio	=	77.3
COc1ccc2c(=O)c3c(OC)cc4c(c3oc2c1)[C@@H](OC(=O)C12CCC(C)(C(=O)O1)C2(C)C)[C@@H](OC(=O)C12CCC(C)(C(=O)O1)C2(C)C)C(C)(C)O4 (stereo not given in full)	selectivity ratio	>	37.8
COc1cc2c(c3oc4cccc(O)c4c(=O)c13)[C@@H](OC(=O)C13CCC(C)(C(=O)O1)C3(C)C)[C@@H](OC(=O)C13CCC(C)(C(=O)O1)C3(C)C)C(C)(C)O2 (stereo not given in full)	selectivity ratio	=	24.5
CCc1cc(=O)c2ccc3c(c2o1)[C@@H](OC(=O)C12CCC(C)(C(=O)O1)C2(C)C)[C@@H](OC(=O)C12CCC(C)(C(=O)O1)C2(C)C)C(C)(C)O3 (stereo not given in full)	selectivity ratio	=	136
COc1cc2c(c3oc4ccc(C#N)cc4c(=O)c13)[C@@H](OC(=O)C13CCC(C)(C(=O)O1)C3(C)C)[C@@H](OC(=O)C13CCC(C)(C(=O)O1)C3(C)C)C(C)(C)O2 (stereo not given in full)	selectivity ratio	>	47.8
COc1cc2c(c3oc4cc(C#N)ccc4c(=O)c13)[C@@H](OC(=O)C13CCC(C)(C(=O)O1)C3(C)C)[C@@H](OC(=O)C13CCC(C)(C(=O)O1)C3(C)C)C(C)(C)O2 (stereo not given in full)	selectivity ratio	=	45.4
CC1(C)Oc2ccc3c(=O)c4ccccc4oc3c2[C@@H](OC(=O)C23CCC(C)(C(=O)O2)C3(C)C)[C@H]1OC(=O)C12CCC(C)(C(=O)O1)C2(C)C (stereo not given in full)	selectivity ratio	>	96.8
COc1cc2c(c3oc4ccccc4c(=O)c13)[C@@H](OC(=O)C13CCC(C)(C(=O)O1)C3(C)C)[C@@H](OC(=O)C13CCC(C)(C(=O)O1)C3(C)C)C(C)(C)O2 (stereo not given in full)	selectivity ratio	>	227
COc1cc2c(c3oc4cc(C)ccc4c(=O)c13)[C@@H](OC(=O)C13CCC(C)(C(=O)O1)C3(C)C)[C@@H](OC(=O)C13CCC(C)(C(=O)O1)C3(C)C)C(C)(C)O2 (stereo not given in full)	selectivity ratio	>	147
COc1cc2c(c3oc4ccccc4/c(=N\O)c13)[C@@H](OC(=O)C13CCC(C)(C(=O)O1)C3(C)C)[C@@H](OC(=O)C13CCC(C)(C(=O)O1)C3(C)C)C(C)(C)O2 (stereo not given in full)	selectivity ratio	>	118

---

Catalogue of CC50 readings, one per entry.
Test: Cytotoxicity against human TZM-bl cells by CytoTox-Glo assay
Type: cell-based

compound	reported-relation	CC50 (µM)
COc1cccc2oc3c4c(cc(OC)c3c(=O)c12)OC(C)(C)[C@H](OC(=O)C12CCC(C)(C(=O)O1)C2(C)C)[C@@H]4OC(=O)C12CCC(C)(C(=O)O1)C2(C)C (stereo partly specified)	=	11.6
COc1cc2c(c3oc4c(C)cccc4c(=O)c13)[C@@H](OC(=O)C13CCC(C)(C(=O)O1)C3(C)C)[C@@H](OC(=O)C13CCC(C)(C(=O)O1)C3(C)C)C(C)(C)O2 (stereo partly specified)	=	4.32
COc1cc2c(c3oc4ccc(CBr)cc4c(=O)c13)[C@@H](OC(=O)C13CCC(C)(C(=O)O1)C3(C)C)[C@@H](OC(=O)C13CCC(C)(C(=O)O1)C3(C)C)C(C)(C)O2 (stereo partly specified)	>	25.2
COc1cc2c(c3oc4cccc(O)c4c(=O)c13)[C@@H](OC(=O)C13CCC(C)(C(=O)O1)C3(C)C)[C@@H](OC(=O)C13CCC(C)(C(=O)O1)C3(C)C)C(C)(C)O2 (stereo partly specified)	=	8.1
COc1cc2c(c3oc4cccc(F)c4c(=O)c13)[C@@H](OC(=O)C13CCC(C)(C(=O)O1)C3(C)C)[C@@H](OC(=O)C13CCC(C)(C(=O)O1)C3(C)C)C(C)(C)O2 (stereo partly specified)	>	13.9
COc1cc2c(c3oc4c(F)cccc4c(=O)c13)[C@@H](OC(=O)C13CCC(C)(C(=O)O1)C3(C)C)[C@@H](OC(=O)C13CCC(C)(C(=O)O1)C3(C)C)C(C)(C)O2 (stereo partly specified)	=	7.8

---

Experiment: Cytotoxicity against human TZM-bl cells by CytoTox-Glo assay
Assay type: cell-based
Catalogue of CC50 readings, one per entry.

molecule	CC50
COc1cc2c(c3oc4ccccc4/c(=N\O)c13)[C@@H](OC(=O)C13CCC(C)(C(=O)O1)C3(C)C)[C@@H](OC(=O)C13CCC(C)(C(=O)O1)C3(C)C)C(C)(C)O2 (stereo partly specified)	> 13.9 µM
CCc1cc(=O)c2ccc3c(c2o1)[C@@H](OC(=O)C12CCC(C)(C(=O)O1)C2(C)C)[C@@H](OC(=O)C12CCC(C)(C(=O)O1)C2(C)C)C(C)(C)O3 (stereo partly specified)	12.1 µM
COc1cc2c(c3oc4cc(C#N)ccc4c(=O)c13)[C@@H](OC(=O)C13CCC(C)(C(=O)O1)C3(C)C)[C@@H](OC(=O)C13CCC(C)(C(=O)O1)C3(C)C)C(C)(C)O2 (stereo partly specified)	9.08 µM
COc1cc2c(c3oc4ccccc4c(=O)c13)[C@@H](OC(=O)C13CCC(C)(C(=O)O1)C3(C)C)[C@@H](OC(=O)C13CCC(C)(C(=O)O1)C3(C)C)C(C)(C)O2 (stereo partly specified)	> 14.3 µM
COc1ccc2c(=O)c3c(OC)cc4c(c3oc2c1)[C@@H](OC(=O)C12CCC(C)(C(=O)O1)C2(C)C)[C@@H](OC(=O)C12CCC(C)(C(=O)O1)C2(C)C)C(C)(C)O4 (stereo partly specified)	> 13.7 µM
COc1cc2c(c3oc4ccc(C#N)cc4c(=O)c13)[C@@H](OC(=O)C13CCC(C)(C(=O)O1)C3(C)C)[C@@H](OC(=O)C13CCC(C)(C(=O)O1)C3(C)C)C(C)(C)O2 (stereo partly specified)	> 13.8 µM
COc1cc2c(c3oc4cc(C)ccc4c(=O)c13)[C@@H](OC(=O)C13CCC(C)(C(=O)O1)C3(C)C)[C@@H](OC(=O)C13CCC(C)(C(=O)O1)C3(C)C)C(C)(C)O2 (stereo partly specified)	> 14 µM
COc1cc2c(c3oc4ccc(C)cc4c(=O)c13)[C@@H](OC(=O)C13CCC(C)(C(=O)O1)C3(C)C)[C@@H](OC(=O)C13CCC(C)(C(=O)O1)C3(C)C)C(C)(C)O2 (stereo partly specified)	11.4 µM
COc1cc(C)c2c(=O)c3c(OC)cc4c(c3oc2c1)[C@@H](OC(=O)C12CCC(C)(C(=O)O1)C2(C)C)[C@@H](OC(=O)C12CCC(C)(C(=O)O1)C2(C)C)C(C)(C)O4 (stereo partly specified)	> 26.8 µM
COc1ccc2oc3c4c(cc(OC)c3c(=O)c2c1)OC(C)(C)[C@H](OC(=O)C12CCC(C)(C(=O)O1)C2(C)C)[C@@H]4OC(=O)C12CCC(C)(C(=O)O1)C2(C)C (stereo partly specified)	10.8 µM
COc1cc2c(c3oc4ccc(F)cc4c(=O)c13)[C@@H](OC(=O)C13CCC(C)(C(=O)O1)C3(C)C)[C@@H](OC(=O)C13CCC(C)(C(=O)O1)C3(C)C)C(C)(C)O2 (stereo partly specified)	26 µM
